Values were extracted from paper PMC5104429.

B1: Flag-tagged wild type LRRK2 (leucine-rich repeat kinase 2) [human] / Full length V5-tagged FADD [not stated] (parent complex)
chain 1: MASGSCQGCEEDEETLKKLIVRLNNVQEGKQIETLVQILEDLLVFTYSERASKLFQGKNIHVPLLIVLDSYMRVASVQQVGWSLLCKLIEVCPGTMQSLMGPQDVGNDWEVLGVHQLILKMLTVHNASVNLSVIGLKTLDLLLTSGKITLLILDEESDIFMLIFDAMHSFPANDEVQKLGCKALHVLFERVSEEQLTEFVENKDYMILLSALTNFKDEEEIVLHVLHCLHSLAIPCNNVEVLMSGNVRCYNIVVEAMKAFPMSERIQEVSCCLLHRLTLGNFFNILVLNEVHEFVVKAVQQYPENAALQISALSCLALLTETIFLNQDLEEKNENQENDDEGEEDKLFWLEACYKALTWHRKNKHVQEAACWALNNLLMYQNSLHEKIGDEDGHFPAHREVMLSMLMHSSSKEVFQASANALSTLLEQNVNFRKILLSKGIHLNVLELMQKHIHSPEVAESGCKMLNHLFEGSNTSLDIMAAVVPKILTVMKRHETSLPVQLEALRAILHFIVPGMPEESREDTEFHHKLNMVKKQCFKNDIHKLVLAALNRFIGNPGIQKCGLKVISSIVHFPDALEMLSLEGAMDSVLHTLQMYPDDQEIQCLGLSLIGYLITKKNVFIGTGHLLAKILVSSLYRFKDVAEIQTKGFQTILAILKLSASFSKLLVHHSFDLVIFHQMSSNIMEQKDQQFLNLCCKCFAKVAMDDYLKNVMLERACDQNNSIMVECLLLLGADANQAKEGSSLICQVCEKESSPKLVELLLNSGSREQDVRKALTISIGKGDSQIISLLLRRLALDVANNSICLGGFCIGKVEPSWLGPLFPDKTSNLRKQTNIASTLARMVIRYQMKSAVEEGTASGSDGNFSEDVLSKFDEWTFIPDSSMDSVFAQSDDLDSEGSEGSFLVKKKSNSISVGEFYRDAVLQRCSPNLQRHSNSLGPIFDHEDLLKRKRKILSSDDSLRSSKLQSHMRHSDSISSLASEREYITSLDLSANELRDIDALSQKCCISVHLEHLEKLELHQNALTSFPQQLCETLKSLTHLDLHSNKFTSFPSYLLKMSCIANLDVSRNDIGPSVVLDPTVKCPTLKQFNLSYNQLSFVPENLTDVVEKLEQLILEGNKISGICSPLRLKELKILNLSKNHISSLSENFLEACPKVESFSARMNFLAAMPFLPPSMTILKLSQNKFSCIPEAILNLPHLRSLDMSSNDIQYLPGPAHWKSLNLRELLFSHNQISILDLSEKAYLWSRVEKLHLSHNKLKEIPPEIGCLENLTSLDVSYNLELRSFPNEMGKLSKIWDLPLDELHLNFDFKHIGCKAKDIIRFLQQRLKKAVPYNRMKLMIVGNTGSGKTTLLQQLMKTKKSDLGMQSATVGIDVKDWPIQIRDKRKRDLVLNVWDFAGREEFYSTHPHFMTQRALYLAVYDLSKGQAEVDAMKPWLFNIKARASSSPVILVGTHLDVSDEKQRKACMSKITKELLNKRGFPAIRDYHFVNATEESDALAKLRKTIINESLNFKIRDQLVVGQLIPDCYVELEKIILSERKNVPIEFPVIDRKRLLQLVRENQLQLDENELPHAVHFLNESGVLLHFQDPALQLSDLYFVEPKWLCKIMAQILTVKVEGCPKHPKGIISRRDVEKFLSKKRKFPKNYMSQYFKLLEKFQIALPIGEEYLLVPSSLSDHRPVIELPHCENSEIIIRLYEMPYFPMGFWSRLINRLLEISPYMLSGRERALRPNRMYWRQGIYLNWSPEAYCLVGSEVLDNHPESFLKITVPSCRKGCILLGQVVDHIDSLMEEWFPGLLEIDICGEGETLLKKWALYSFNDGEEHQKILLDDLMKKAEEGDLLVNPDQPRLTIPISQIAPDLILADLPRNIMLNNDELEFEQAPEFLLGDGSFGSVYRAAYEGEEVAVKIFNKHTSLRLLRQELVVLCHLHHPSLISLLAAGIRPRMLVMELASKGSLDRLLQQDKASLTRTLQHRIALHVADGLRYLHSAMIIYRDLKPHNVLLFTLYPNAAIIAKIADYGIAQYCCRMGIKTSEGTPGFRAPEVARGNVIYNQQADVYSFGLLLYDILTTGGRIVEGLKFPNEFDELEIQGKLPDPVKEYGCAPWPMVEKLIKQCLKENPQERPTSAQVFDILNSAELVCLTRRILLPKNVIVECMVATHHNSRNASIWLGCGHTDRGQLSFLDLNTEGYTSEEVADSRILCLALVHLPVEKESWIVSGTQSGTLLVINTEDGKKRHTLEKMTDSVTCLYCNSFSKQSKQKNFLLVGTADGKLAIFEDKTVKLKGAAPLKILNIGNVSTPLMCLSESTNSTERNVMWGGCGTKIFSFSNDFTIQKLIETRTSQLFSYAAFSDSNIITVVVDTALYIAKQNSPVVEVWDKKTEKLCGLIDCVHFLREVMVKENKESKHKMSYSGRVKTLCLQKNTALWIGTGGGHILLLDLSTRRLIRVIYNFCNSVRVMMTAQLGSLKNVMLVLGYNRKNTEGTQKQKEIQSCLTVWDINLPHEVQNLEKHIEVRKELAEKMRRTSVE
chain 2: MDPFLVLLHSVSSSLSSSELTELKFLCLGRVGKRKLERVQSGLDLFSMLLEQNDLEPGHTELLRELLASLRRHDLLRRVDDFEAGAAAGAAPGEEDLCAAFNVICDNVGKDWRRLARQLKVSDTKIDSIEDRYPRNLTERVRESLRIWKNTEKENATVAHLVGALRSCQMNLVADLVQEVQQARDLQNRSGAMSPMSWNSDASTSEAS

Variants of: B1
ASSAY_PROTOCOL: ELISA (anti-Flag capture, anti-V5 detection); 15 μg of cell extract loaded in each well; parent: 0.61; read off a plot
MEASURED_PROPERTY: response

Q: Suppose we examine the variant chain 1 T1410M ; what response value has been reported?
Result: ~1.7 anti-V5/Total LRRK2

Q: Bench note: what response did chain 1 R1441C show?
Result: ~0.75 anti-V5/Total LRRK2

Q: Fill in the blank: the reported response of chain 1 A211V is ____.
Result: ~0.91 anti-V5/Total LRRK2

Q: Query (variant): chain 1 K544E ; field requested: response
Result: ~1.2 anti-V5/Total LRRK2

Q: Could you share which response value was measured for chain 1 I2020T ?
Result: ~0.77 anti-V5/Total LRRK2

Q: Given the variant chain 1 G2019S , what is its reported response?
Result: ~1.2 anti-V5/Total LRRK2
